TGI for assorted compounds
# Test system: U251 CNS
# test.summary: NCI tumour cell line growth inhibition, 48 h
Number in µM, nothing else.

# compound, test.result
measured = [
    ("CC[C@H](C)N(CCN)C(=O)c1cc2ccccc2c(-c2ccccc2Cl)n1", 24.4),
]

Tell me its TGI given O=C(CCCCCCSc1nc(-c2ccccc2)cc(-c2ccc(Cl)cc2)n1)NO as the entry.
4.08

Tell me its TGI given C=C1C(=O)O[C@H]2[C@H]1CC/C(Cn1cc(CNC(=O)Cc3cn(C(=O)c4ccc(Cl)cc4)c4ccc(OC)cc34)nn1)=C\CC[C@@]1(C)O[C@@H]21 as the entry.
3.55

Tell me its TGI given COc1ccc2cc(C(=O)/C=C/c3cc(OC)c(OC)c(OC)c3)ccc2c1 as the entry.
9.48

Tell me its TGI given C=C1CC2(OC1=O)C(=O)N(CCCCCCCN1C(=O)C3(CC(=C)C(=O)O3)c3ccccc31)c1ccccc12 (configuration not stated) as the entry.
12.4

Tell me its TGI given Cn1ccnc1S/C(=C\C=C(C#N)C#N)c1ccc(Cl)cc1 as the entry.
6.85

Tell me its TGI given CCOC(=O)C(=O)Nc1nc2c(s1)C(=O)c1ccccc1C2=O as the entry.
31

Tell me its TGI given COc1cc(C2CC(c3ccc(C)cc3)=NN2C=O)ccc1Oc1ccnc2cc(Cl)ccc12 (configuration not stated) as the entry.
21.4

Tell me its TGI given CCOC(C[Se]CC(OCC)OCC)OCC as the entry.
38.4

Tell me its TGI given COc1cc(/C(C#N)=C/c2ccc3c(c2OC)OCO3)cc2c1OCO2 as the entry.
14
